- assay_conditions: in ethyl formate, 288.15 K
assay_metric: solubility (mole fraction)

[
  {
    "structure_smiles": "CCOc1ccccc1C(N)=O",
    "reading": 0.00842
  }
]

* * *

- assay_conditions: in 1,4-dioxane, 288.15 K
assay_metric: solubility (mole fraction)

[
  {
    "structure_smiles": "CCOc1ccccc1C(N)=O",
    "assay_metric": "solubility (mole fraction)",
    "reading": 0.0116
  }
]

* * *

- assay_conditions: in DMF, 298.15 K
assay_metric: solubility (mole fraction)

[
  {
    "structure_smiles": "CCOc1ccccc1C(N)=O",
    "reading": 0.0653
  }
]
